# measurement.description: Pharmacokinetic study in rats after oral HAR and MEM alone and in combination (plasma, UPLC-MS/MS, non-compartmental)
# measurement.conditions: male, Sprague-Dawley, rat, plasma, po, 5 mg/kg, MRT of MEM, rat plasma; oral MEM 5.0 mg/kg + HAR 80.0 mg/kg (HAR-H + MEM); n = 8, mean ± SD
readout: MRT (h)
Supply the numeric figure in h, leaving out any unit text.

Input line: Give the value of MRT reported for the following: CC12CC3CC(C)(C1)CC(N)(C3)C2 [MEM, 1-amino-3,5-dimethyladamantane, reference compound]
Output line: 8.5

----------
# measurement.description: in vivo
# measurement.conditions: male, Sprague-Dawley, rat, in vivo, po, 80 mg/kg, Cmax of HAR, rat plasma; oral HAR 80.0 mg/kg alone (HAR-H); n = 8, mean ± SD
readout: Cmax (ng/mL)
# value in ng/mL; strip the unit string

Input line: Supply reported Cmax belonging to this molecule: COc1ccc2c(c1)[nH]c1c(C)nccc12
Output line: 368
